relative growth by entry:
test system: Prolinoborus 1 (Prolinoborus fasciculus); assay: relative growth (AUC of 72 h growth curve relative to DMSO control, dAUC) (ratio); higher = more growth (less inhibition), active = hit call of the paper; details: 20 µM
Give the value as a plain number.

>>> print(df.to_string())
                                   compound   outcomemeasure  testresult
0            COP(=S)(OC)Oc1nc(Cl)c(Cl)cc1Cl  relative growth        1.04
1      CCc1cccc(C)c1N(C(=O)CCl)[C@@H](C)COC  relative growth        1.01
2              Nc1c(Cl)c(F)nc(OCC(=O)O)c1Cl  relative growth           1
3  COC(=O)N(C(=O)N1CO[C@@]2(C(=O)OC)Cc3cc(Cl)ccc3C2=N1)c1ccc(OC(F)(F)F)cc1  relative growth           1
4  CS(=O)(=O)c1ccc(C(=O)C2C(=O)CCCC2=O)c([N+](=O)[O-])c1  relative growth       0.983
5                    CNC(=O)Oc1cccc2ccccc12  relative growth           1
6  ClC1C(Cl)C(Cl)C(Cl)C(Cl)C1Cl (stereo unspecified)  relative growth       0.987
7  CCc1cc(C)cc(CC)c1-c1c(OC(=O)C(C)(C)C)n2n(c1=O)CCOCC2  relative growth       0.926

Could you tell me which relative growth is on file for CC(C1CC1)C(O)(Cn1cncn1)c1ccc(Cl)cc1 (stereo unspecified) ? 0.901

And what about the compound `CO/N=C(/C(=O)OC)c1ccccc1CO/N=C(\C)c1cccc(C(F)(F)F)c1` ? 0.953

And what about the compound `CC(C)(C)[C@@H](O)[C@H](Oc1ccc(Cl)cc1)n1cncn1` ? 1.02

----------
relative growth by entry:
system: Arthrobacter 2 (Arthrobacter humicola); test: relative growth (AUC of 72 h growth curve relative to DMSO control, dAUC) (ratio); higher = more growth (less inhibition), active = hit call of the paper; conditions: 20 µM
Give the value as a plain number.

Worked cases, answers included:
molecule	testResult
CNC(=O)ON=C(C)SC	1.01
COP(=O)(NC(C)=O)SC (configuration not stated)	0.906
COCc1cnc(C2=NC(C)(C(C)C)C(=O)N2)c(C(=O)O)c1 (configuration not stated)	1.01

Could you tell me which relative growth is on file for CC[C@H](C)C1O[C@]2(C=C[C@@H]1C)C[C@@H]1C[C@@H](C/C=C(\C)[C@@H](O[C@H]3C[C@H](OC)[C@@H](O[C@H]4C[C@H](OC)[C@H](NC)[C@H](C)O4)[C@H](C)O3)[C@@H](C)/C=C/C=C3\CO[C@@H]4[C@H](O)C(C)=C[C@@H](C(=O)O1)[C@]34O)O2 (some centres not stated) ? 0.00328

----------
test system: Pseudomonas 5 (Pseudomonas baetica); assay: relative growth (AUC of 72 h growth curve relative to DMSO control, dAUC) (ratio); higher = more growth (less inhibition), active = hit call of the paper; details: 20 µM
outcomeMeasure: relative growth
Give the value as a plain number.

Worked cases, answers included:
In [3]: df
Out[3]:
                                   molecule  testresult
0               N#C/N=C1\SCCN1Cc1ccc(Cl)nc1           1
1          CN(C)C(CSS(=O)(=O)O)CSS(=O)(=O)O        1.04
2                   Cc1cc(C)nc(Nc2ccccc2)n1        0.99
3  CC1(C)C(C=C(Cl)Cl)C1C(=O)OC(C#N)c1ccc(F)c(Oc2ccccc2)c1 (stereo unspecified)        1.03

Could you tell me which relative growth is on file for `CC(C)(C)c1ccc(CSc2cnn(C(C)(C)C)c(=O)c2Cl)cc1` ? 1.01

And what about the molecule `CCC(C)(C)C(=O)OC1=C(c2ccc(Cl)cc2Cl)C(=O)OC12CCCCC2` ? 1.02

And what about the molecule CC(Oc1ccc(Oc2ncc(C(F)(F)F)cc2Cl)cc1)C(=O)O (stereo unspecified) ? 1.03
